From: ChEMBL document CHEMBL1201862

Biological target: Cytochrome P450 1A2 (Homo sapiens, UniProt P05177)
Sequence (P05177 whole entry): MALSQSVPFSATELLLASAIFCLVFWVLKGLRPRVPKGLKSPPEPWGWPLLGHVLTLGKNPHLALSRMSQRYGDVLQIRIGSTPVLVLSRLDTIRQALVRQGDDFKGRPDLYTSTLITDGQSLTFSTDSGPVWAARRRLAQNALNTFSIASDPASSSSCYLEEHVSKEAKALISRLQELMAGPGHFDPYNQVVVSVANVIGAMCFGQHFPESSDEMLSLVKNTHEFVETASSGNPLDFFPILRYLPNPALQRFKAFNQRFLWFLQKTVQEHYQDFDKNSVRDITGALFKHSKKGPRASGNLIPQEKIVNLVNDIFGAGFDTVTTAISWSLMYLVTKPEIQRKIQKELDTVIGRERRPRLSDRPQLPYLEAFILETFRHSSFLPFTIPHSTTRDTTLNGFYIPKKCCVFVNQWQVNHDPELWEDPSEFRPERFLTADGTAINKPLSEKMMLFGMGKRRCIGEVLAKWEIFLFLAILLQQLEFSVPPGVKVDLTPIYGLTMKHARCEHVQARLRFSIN
Measured AC50, listed per entry for reference.

Below are worked cases with known answers.
{"columns": ["molecule", "AC50"],
 "data": [
  ["O=C(CC(NS(=O)(=O)c1ccc(Cl)cc1)c1ccco1)NCc1ccco1 (stereo unspecified)", "25.1 µM (inconclusive)"],
  ["COc1cc(O)c2c(O)c3c(c4c2c1[C@@]1(C4)C(C)=CCCC1(C)C)[C@H](O)[C@@]1(O)CC(O)=C(C(N)=O)C(=O)[C@]1(O)C3=O", "3.16 µM (inconclusive)"],
  ["CCSc1nnc(NC(=O)COc2ccc3ccccc3c2)s1", "10 µM (inconclusive)"],
  ["CCCCCC1=C2CNC(C)(C(=O)OC)C=C2C(C)C1=O (stereo unspecified)", "25.1 µM (inconclusive)"],
  ["Cc1cnc(CNc2cc(-c3cccnc3)ncn2)cn1", "15.8 µM (inconclusive)"],
  ["COc1ccccc1CN1CC[C@@]2(CCCN(C(=O)c3cc(C(F)(F)F)cc(C(F)(F)F)c3)C2)C1", "15.8 µM (inconclusive)"],
  ["Cc1cccc(Oc2coc3cc(OC(=O)c4cccs4)ccc3c2=O)c1", "14.1 µM (inconclusive)"],
  ["C[C@](N)(COP(=O)(O)O)C(=O)O", "31.6 µM (inconclusive)"]
]}

Recorded AC50 for CCn1c(SCC(=O)N/N=C/C=C\c2ccccc2[N+](=O)[O-])nnc1-c1ccccc1 with Cytochrome P450 1A2 (Homo sapiens, UniProt P05177), please?
28.2 µM (inconclusive)

Cytochrome P450 1A2 (Homo sapiens, UniProt P05177) / AC50 / CCCCCN1CC(=O)C(c2nc(-c3ccc(Cl)cc3)cs2)=C1N : value?
1.58 µM (inconclusive)

# query: AC50 | item CN1CCc2ccccc2[C@@H]1Cc1ccccc1NC(=O)c1sc2ccccc2c1Cl | system: Cytochrome P450 1A2 (Homo sapiens, UniProt P05177);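 note: PubChem cytochrome P450 panel assay, CYP1A2 panel member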
5.01 µM (inconclusive)

====

# key: entry, value: IC50
Target: Large T antigen (Simian virus 40, UniProt P03070);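 note: Confirmatory-stage PubChem screen for compounds that inhibit SV40 T antigen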
Sequence (P03070 whole entry): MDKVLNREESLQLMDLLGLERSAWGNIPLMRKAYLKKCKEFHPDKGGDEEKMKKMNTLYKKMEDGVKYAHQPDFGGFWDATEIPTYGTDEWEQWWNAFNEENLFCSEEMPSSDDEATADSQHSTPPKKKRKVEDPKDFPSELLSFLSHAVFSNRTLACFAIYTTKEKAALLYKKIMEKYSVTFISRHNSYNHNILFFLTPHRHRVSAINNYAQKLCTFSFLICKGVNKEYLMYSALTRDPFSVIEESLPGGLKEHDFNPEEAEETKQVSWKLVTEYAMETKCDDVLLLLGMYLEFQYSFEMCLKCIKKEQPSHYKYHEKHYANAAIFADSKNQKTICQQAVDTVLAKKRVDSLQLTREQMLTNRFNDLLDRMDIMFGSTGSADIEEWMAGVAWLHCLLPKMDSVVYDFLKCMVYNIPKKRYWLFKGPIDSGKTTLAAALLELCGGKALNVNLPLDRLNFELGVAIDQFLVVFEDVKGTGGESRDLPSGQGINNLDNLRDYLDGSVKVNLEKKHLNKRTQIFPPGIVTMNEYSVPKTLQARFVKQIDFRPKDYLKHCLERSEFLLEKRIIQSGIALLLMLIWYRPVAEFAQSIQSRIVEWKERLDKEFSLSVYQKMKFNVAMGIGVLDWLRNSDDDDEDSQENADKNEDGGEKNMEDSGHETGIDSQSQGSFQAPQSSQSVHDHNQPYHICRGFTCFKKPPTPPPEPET
Format: functional, Betapolyomavirus macacae
Activity calls are given as the source filed them.

Sample answers from the record:
{"columns": ["compound", "IC50"],
 "data": [
  ["CCNc1nc(NCC)nc(N/N=C/c2ccc(O)c(OC)c2)n1", "11 µM (active)"],
  ["O=[N+]([O-])c1cc(Cc2ccccc2)cc(/C=N/c2ccc(N3CCOCC3)cc2)c1O", "2.64 µM (active)"],
  ["O=C1NC(=O)C(=Cc2csc3ccccc23)C(=O)N1", "59.7 µM (active)"],
  ["COc1ccc(/C=N\\NC(=O)c2ccc(O)nn2)cc1O", "14.3 µM (active)"],
  ["CCOC(=O)C1=C(C)N(c2ccccc2)C(=O)/C1=C\\c1ccc(O)c(OC)c1", "47.1 µM (active)"]
]}

Quick one: IC50 of COc1cc(C2C(C#N)=C(N)Oc3[nH]nc(-c4cccnc4)c32)cc(Br)c1O (configuration not stated) ?
57 µM (active)

Record request: IC50 value, item COc1ccc(-c2nc(O)c3cnccn23)cc1
24.2 µM (active)

====

Target: UniProtKB Q9GZV3
Sequence (Q9GZV3 whole entry): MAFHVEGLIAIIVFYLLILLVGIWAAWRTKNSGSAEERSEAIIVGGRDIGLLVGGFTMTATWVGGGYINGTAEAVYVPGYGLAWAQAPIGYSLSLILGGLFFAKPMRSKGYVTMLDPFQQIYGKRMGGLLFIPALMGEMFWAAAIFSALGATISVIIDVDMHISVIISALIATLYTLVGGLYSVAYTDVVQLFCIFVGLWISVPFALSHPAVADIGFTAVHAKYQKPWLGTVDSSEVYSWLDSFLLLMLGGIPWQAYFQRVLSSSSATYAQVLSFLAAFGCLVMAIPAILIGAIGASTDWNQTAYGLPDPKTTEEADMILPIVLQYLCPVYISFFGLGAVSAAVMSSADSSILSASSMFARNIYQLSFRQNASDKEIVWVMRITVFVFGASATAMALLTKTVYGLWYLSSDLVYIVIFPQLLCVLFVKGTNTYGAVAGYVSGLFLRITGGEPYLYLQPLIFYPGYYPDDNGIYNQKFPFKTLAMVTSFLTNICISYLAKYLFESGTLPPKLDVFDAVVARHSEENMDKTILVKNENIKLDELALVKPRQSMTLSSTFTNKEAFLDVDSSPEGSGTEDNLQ
Assay: CHT inhibitors, dose response, cell-based, 5-point CRC, membrane potential dye (AID 504840)
Format: functional
Active and inactive are the calls of the source.
property_name: IC50

Looking for the measured IC50 of CCCCCn1c(=O)c(C(=O)OCC)c(Cl)c2ccccc21 , can you help?
19.1 µM (active)

Param item = O=[N+]([O-])c1cc(Cc2ccccc2)cc(/C=N/c2ccc(N3CCOCC3)cc2)c1O ; retrieve measured IC50.
9.12 µM (active)

For the molecule shown here, CCc1cccc(CC)c1NC(=O)c1cccc(S(=O)(=O)N2CCN(C)CC2)c1 , give the reported IC50.
7.52 µM (active)

Would you mind telling me what IC50 value was observed for Oc1c(Cl)cc(Cl)cc1/C=N/c1ccc2c(c1)OCCO2 ?
10 µM (active)

Look up IC50: CCOC(=O)N1CCC(NC(=O)C2CCCN(Cc3nc(-c4cccc(Cl)c4)oc3C)C2)CC1 (stereo unspecified)
6.92 µM (active)

====

Let's look at some molecules and their measured IC50.
Target: Trace amine-associated receptor 1 (Homo sapiens, UniProt Q96RJ0);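 note: inhibition of calcium response to PEA at EC80 in Galpha16 coupled cells measured by Fluo-8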
Sequence (Q96RJ0 whole entry): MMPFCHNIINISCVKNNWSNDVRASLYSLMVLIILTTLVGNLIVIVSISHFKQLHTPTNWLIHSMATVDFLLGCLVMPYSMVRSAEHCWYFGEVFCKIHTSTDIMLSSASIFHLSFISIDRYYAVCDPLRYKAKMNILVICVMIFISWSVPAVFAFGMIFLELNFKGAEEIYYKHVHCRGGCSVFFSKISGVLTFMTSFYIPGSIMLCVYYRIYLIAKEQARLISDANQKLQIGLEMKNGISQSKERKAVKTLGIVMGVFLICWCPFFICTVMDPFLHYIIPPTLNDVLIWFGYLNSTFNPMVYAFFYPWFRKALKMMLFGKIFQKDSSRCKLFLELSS
Assay: Counterscreen for agonists of the human trace amine associated receptor 1 (hTAAR1): Fluorescence-based cell-based high throughput dose response assay to identify hTAAR1 agonist that also desensitize TAAR1 receptor response.
Assay type: functional
Active and inactive are the calls of the source.

The following molecules have reported results that may help.
{"columns": ["molecule", "IC50"],
 "data": [
  ["Nc1c(NCCc2ccccc2)c2ccccc2oc1=O", "6.4 µM (active)"],
  ["CC1NC(=O)NC1CCCCCC(=O)NCCc1ccccc1 (stereo not given)", "6.36 µM (active)"],
  ["O=C(CCn1c(=S)[nH]c2cc3c(cc2c1=O)OCO3)NCCc1ccccc1Cl", "9.24 µM (active)"],
  ["COc1cccc(OC)c1C(=O)NCCc1ccccc1", "9.6 µM (active)"]
]}

// below: IC50 requested for another molecule
Quick check: IC50 of Cc1ccsc1/C=N/NC(=O)Cn1nc(C)c([N+](=O)[O-])c1C ?
5.81 µM (active)

====

Biological target: Kappa-type opioid receptor (Homo sapiens, UniProt P41145)
Sequence (P41145 whole entry): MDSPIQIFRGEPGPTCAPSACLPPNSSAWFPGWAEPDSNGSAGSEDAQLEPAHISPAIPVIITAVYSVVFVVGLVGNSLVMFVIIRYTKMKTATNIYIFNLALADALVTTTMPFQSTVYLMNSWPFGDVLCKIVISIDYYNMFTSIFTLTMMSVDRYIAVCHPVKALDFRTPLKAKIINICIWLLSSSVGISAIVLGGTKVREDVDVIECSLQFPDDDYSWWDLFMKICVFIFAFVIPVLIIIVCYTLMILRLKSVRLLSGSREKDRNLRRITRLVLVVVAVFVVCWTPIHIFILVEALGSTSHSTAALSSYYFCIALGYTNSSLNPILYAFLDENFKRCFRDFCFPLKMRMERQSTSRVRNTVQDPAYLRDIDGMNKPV
Assay type: functional
property_name: pEC50
Note: pEC50 values are expressed as the negative base-10 logarithm of concentration in M.

Requested read-out: pEC50. Entry: Cc1cccc(C)c1NC(=O)C1(N(Cc2ccco2)C(=O)c2ccccn2)CCCC1
5.38

====

Biological target: Caspase-3 (Homo sapiens, UniProt P42574);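 note: Dose-response selectivity test against caspase-3 for candidate inhibitors of sentrin-specific proteases (SENPs)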
Type: functional
The source made the active and inactive calls.
Each entry below carries its recorded IC50.

Study these solved cases before continuing.
{"columns": ["compound", "property_name", "recorded_measurement"],
 "data": [
  ["N=C1/C(=N\\Nc2ccccc2F)C(=O)NN1c1ccccc1", "IC50", "16.4 µM (active)"],
  ["C=C(C)c1sc(-c2ccc(Cl)cc2)nc1C", "IC50", "13.4 µM (active)"],
  ["COc1ccc(-c2cc3ccccc3[nH]2)cc1", "IC50", "14.1 µM (active)"],
  ["Cc1ccccc1-c1nc(-c2ccc(Br)o2)no1", "IC50", "17 µM (active)"],
  ["Nc1nc2ccccc2n1/N=C/c1ccc(Br)cc1", "IC50", "16.1 µM (active)"]
]}

Given NC(=NOC(=O)c1ccc(Cl)cc1Cl)c1ccc(Cl)cc1 , state its recorded IC50.
35.6 µM (active)

Could you share which IC50 value was measured for Cc1ccc(O)c(-c2cc(-c3ccccc3F)[nH]n2)c1 ?
31.9 µM (active)

Give the measured IC50 of CCC(C)NC(=O)c1c(N)n(CCCOC)c2nc3ccccc3nc12 (stereo not drawn) .
6.15 µM (active)

====

Assay: Luminescence Cell-Based Dose Retest to Confirm Inhibitors of Cancer Stem Cells. [Related pubchem assays (depositor defined):AID2717, AID2721]
Assay type: functional
Settings: Homo sapiens
The source made the active and inactive calls.
property_name: AC50

Check out these entries, answers already filled in.
{"columns": ["compound_structure_string", "recorded_measurement"],
 "data": [
  ["COc1cc(C[C@H](C)[C@H](C)Cc2ccc3c(c2)OCO3)ccc1O", "5.23 µM (active)"],
  ["O=S(=O)(Nc1ccc(-c2nnc(SCc3ccc(Cl)cc3)o2)cc1)c1ccccc1", "3.31 µM (active)"],
  ["Cc1ccc(C)c(-c2csc(N)c2C(=O)OC(C)C)c1", "6.66 µM (active)"]
]}

Quick one: AC50 of Cc1cc(F)ccc1S(=O)(=O)Nc1ccccc1C(=O)Nc1ccccc1-c1nc2ccccc2[nH]1 ?
2.02 µM (active)

Given CC(=O)c1ccc(NC(=O)c2ccc([N+](=O)[O-])o2)cc1 , state its recorded AC50.
4.95 µM (active)

Give its AC50 value. Item: Cc1cc(/C=N/n2c(COc3ccccc3)nc3ccccc3c2=O)c(O)c([N+](=O)[O-])c1
20.9 µM (active)

If you can, please state the reported AC50 value of Cc1cccc(NC2=C/C(=N/S(=O)(=O)c3cccs3)c3ccccc3C2=O)c1 .
0.835 µM (active)
